Origin of values: patent US20190367619A1

This section presents binders with their documented EC50 values.
Biological target: T1, human galectin-10-His (human)
T1 construct: The last M of the tag may be Met1 of galectin-10; also called humanGal10-His; hGal10
T1 chain: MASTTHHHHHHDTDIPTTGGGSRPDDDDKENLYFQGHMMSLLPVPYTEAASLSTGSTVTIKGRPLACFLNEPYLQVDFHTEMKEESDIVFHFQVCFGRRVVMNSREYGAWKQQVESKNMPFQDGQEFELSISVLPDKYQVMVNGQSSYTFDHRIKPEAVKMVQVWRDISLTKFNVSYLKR
Assay: ELISA, coated antigen 0.2 ug/mL
// note: answer is a bare numeric in nM

binder="10A06 scFv-human Fc (Fc fusion, also called 010A06; not shown: CH2-CH3 constant domains of human IgG1 (pUPEX50 scFv-Fc fusion vector)) scFv: QVQLVESGGGLVQPGGSLRLSCAASGFTFGNYDMSWVRQAPGKGPEWVSDINSGGGSTYYADSVKGRFTISRDNAKNSLLLQMNSLKPEDTAVYYCATGYTGYYYWGQGTQVTVSSGGGGSGGGGSGGGGSQTVVTQEPSLSVSPGGTVTLTCGLSSGSVTSSNYPAWYQQTPGQAPRALIYSINSRHSGVPDRFSGSISGNKAALTITGAQAEDEADYYCTLYMGTGSNNVVFGGGTHLTVL" quantityunit=nM recordedvalue=0.08
binder="10B02 scFv-human Fc (Fc fusion, also called 010B02; not shown: CH2-CH3 constant domains of human IgG1 (pUPEX50 scFv-Fc fusion vector)) scFv: QVQLVESGGGLVQPGGSLRVSCAASGFTFSYHYMNWVRQAPGKGLEWVSGISAGGGRTYYADSVKGRFTISRDNAKNTLYLQMNSLNAEDTALYYCARVHGITNDYWGQGTQVTVSSGGGGSGGGGSGGGGSQSALTQPPSVSGSPGKTVTISCAGTSSDVGYGNYVSWYQQLPGMAPKLLIYEVNKRASGITDRFSGSKSGNTAFLTISGLQSEDEADYYCASYRNSNNWVFGGGTHLTVL" quantityunit=nM recordedvalue=0.09
binder="10D02 scFv-human Fc (Fc fusion, also called 010D02; not shown: CH2-CH3 constant domains of human IgG1 (pUPEX50 scFv-Fc fusion vector)) scFv: EVQLVESGGGLVQPGGSLRVSCAASGFTFSSYYMSWVRQAPGKGLEWVSGIVTGGGRTHYTDSVKGRFTITRDNAKNTLYLQMNSLRPEDTALYYCARVNGVVTNYDYWGQGTQVTVSSGGGGSGGGGSGGGGSQAVLTQPPSVSGSPGKTVTISCAGTSSDVGYGNYVSWYQQLPGMAPKLLIYDVNKRASGITDRFSGSKSGNTASLTISGLQSEDEADYFCASYRSPNNVVFGQGTHLTVL" quantityunit=nM recordedvalue=0.56
binder="11F02 scFv-human Fc (Fc fusion, also called 011F02; not shown: CH2-CH3 constant domains of human IgG1 (pUPEX50 scFv-Fc fusion vector)) scFv: ELQVVESGGGLVQPGGSLRLSCAASGFTFSTNYMNWVRQAPGKGLEWVSGITSHGARTYYADSVKGRFTISRDNSKNTLYLQMNSLKPEDTALYYCARTDHASLDAWGQGTLVTVSSGGGGSGGGGSGGGGSQTVVTQEPSLSVSPGGTVTLTCGLSSGSVTSSNYPGWYQQKPGQAPRTLIYNTNSRYSGVPNRFSGSISGNKAALTITGAQPEDEADYYCALYMGSSSYNTVFGGGTHLTVL" quantityunit=nM recordedvalue=0.77
binder="7B07 scFv-human Fc (Fc fusion, also called 007B07; not shown: CH2-CH3 constant domains of human IgG1 (pUPEX50 scFv-Fc fusion vector)) scFv: QVQLVESGGGLVQPGGSLRLSCAASGFTFRSYDMSWVRQAPGKGPEWVSAIKNGGGITYYADSVKGRFTISRDNAKNTLYLQMNSLKPEDTAVYYCATTHGIGTLGFGSWGQGTQVTVSSGGGGSGGGGSGGGGSSYELTQSASVSVALTQTAKITCDGNNIGSKSAQWYQQKPGQAPALVIYADEYRPEGIPERFSGSNSGNTATLIISGAQAEDEADYYCQVWDGSAAVFGRGTHLTVL" quantityunit=nM recordedvalue=1.11

Lab note: next binder to report on.
Query :: Query: EC50; subject: 6F05 scFv-human Fc (Fc fusion, Positive control from the first panel; also called 6F5; not shown: CH2-CH3 constant domains of human IgG1 (pUPEX50 scFv-Fc fusion vector)) scFv: QLQLVESGGGLVQPGGSLRLSCAASGFTFSSYAMSWVRQAPGKGLEWVSAINSGGGSTSYADSVKGRFTISRDNAKNTLYLQMNSLKPEDTAVYYCATPGDRLWYYRYDYWGQGTQVTVSSGGGGSGGGGSGGGGSQAGLTQPPSVSGTLGKAVTISCAGTSSDIGYGNYVSWYQQLPGTAPKLLIYKVSRRASGVPDRFSGSKSGNTASLSISGLQSEDEADYYCASYRYRNNVVFGGGTHLTVL
Result :: 0.02
